The measurements presented in this section are drawn from patent US20230357384A1.

Reported koff values follow for various binders
# system under test: T1, FLRT3-His monomeric fusion protein (Homo sapiens (Human), UniProt Q9NZU0 29-528)
# T1 construct: also called FLRT3 monomer; not shown: His tag
# T1 sequence: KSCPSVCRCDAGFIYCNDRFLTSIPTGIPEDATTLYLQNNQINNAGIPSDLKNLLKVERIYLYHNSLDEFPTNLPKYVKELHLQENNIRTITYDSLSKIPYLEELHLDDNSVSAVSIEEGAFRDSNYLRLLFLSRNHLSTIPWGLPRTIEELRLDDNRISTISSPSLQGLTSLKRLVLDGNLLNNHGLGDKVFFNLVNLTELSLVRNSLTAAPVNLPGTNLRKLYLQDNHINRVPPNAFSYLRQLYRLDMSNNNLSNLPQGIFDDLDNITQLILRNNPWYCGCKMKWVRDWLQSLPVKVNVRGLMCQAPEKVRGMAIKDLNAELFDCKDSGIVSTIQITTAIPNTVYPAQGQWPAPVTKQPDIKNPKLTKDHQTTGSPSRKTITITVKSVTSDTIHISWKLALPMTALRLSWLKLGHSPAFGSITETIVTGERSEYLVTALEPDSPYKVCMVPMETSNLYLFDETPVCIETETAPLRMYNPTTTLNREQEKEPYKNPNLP
# test description: kinetic affinity measurement with FLRT3-His monomer (Table 1)
Reply numerically in s⁻¹, unit not repeated.

Input 2F7 (antibody, V domains shown, Variable domains only) VH: EVQLQQSGPELVKPGASVKMSCKASGYTFTDYYMNWVKQSHGKSLEWIGRVYPSNSGASYNQKFKGKATLTVDKSLSTAYMQLNSLTSEDSAVYYCASSYYFDYWGQGTTLTVSS VL: DIVMTQSHKFMSTSIGDRVNITCKASQDVGTAVAWFQQKPGQSPKLLIYWASTRHTGVPDRFTGSGSGTDFTLTISNVQSEDLADYFCQQYSSYPTFGAGTTLELK . Output koff: 0.000135

Consider the record given below.
Input 14B7 (antibody, V domains shown, Variable domains only; also called FLRT3 mAb 14B7; antibody 14B7) VH: QVQLQQSGPELVKPGASVNISCKASGYAFGNSWMNWVKQRPGKGLEWIGWIYPGDGNANYNGKFKGKATLTADKSSSTAYMQLSSLTSEDSAVYFCARALYDYDGWFAYWGQGTLVTVSA VL: DIQMNQSPSSLSASLGDTITIACRASQNIDIWLSWYQQKPGSIPKLLIYKASNLHTGVPSRFSGSGSGTDFTLTISSLQPEDIATYYCLQGQSFPFTFGSGTKLEIK . Output koff: 0.000138
